- MEASUREMENT TARGET: 5-hydroxytryptamine receptor 1B (Rattus norvegicus, UniProt P28564); further: in other assays of this panel Not Active means under 50% inhibition at 10 µM
- Sequence (P28564 whole entry): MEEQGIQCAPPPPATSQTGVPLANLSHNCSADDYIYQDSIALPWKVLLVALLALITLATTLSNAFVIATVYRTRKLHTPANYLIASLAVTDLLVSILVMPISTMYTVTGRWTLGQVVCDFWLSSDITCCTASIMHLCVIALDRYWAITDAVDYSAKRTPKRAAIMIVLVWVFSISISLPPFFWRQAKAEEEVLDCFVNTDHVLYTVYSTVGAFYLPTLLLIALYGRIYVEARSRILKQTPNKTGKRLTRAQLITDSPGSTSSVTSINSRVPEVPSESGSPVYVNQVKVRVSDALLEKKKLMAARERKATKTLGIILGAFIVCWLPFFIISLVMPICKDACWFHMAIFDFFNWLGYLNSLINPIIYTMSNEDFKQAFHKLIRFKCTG
- Type: cell membranes, Wistar, Cerebral cortex, Membrane
TEST READOUT: IC50

Worked cases, answers included:
N[C@@H](Cc1cc(I)c(Oc2ccc(O)c(I)c2)c(I)c1)C(=O)O : Not Active
CC(O)CO (stereo unspecified) : Not Active
Cc1ccc(-c2cc(C(F)(F)F)nn2-c2ccc(S(N)(=O)=O)cc2)cc1 : Not Active
CCCCc1nc(Cl)c(CO)n1Cc1ccc(-c2ccccc2-c2nnn[nH]2)cc1 : Not Active
Clc1cccc(Cl)c1NC1=NCCN1 : Not Active
Cc1cc(C2CCCCC2)n(O)c(=O)c1 : Not Active
C[C@H](CS)C(=O)N1CCC[C@H]1C(=O)O : Not Active
Nc1nc2c(ncn2COCCO)c(=O)[nH]1 : Not Active
Nc1nc2ccc(OC(F)(F)F)cc2s1 : Not Active
NC(=O)N1c2ccccc2CCc2ccccc21 : Not Active

Please indicate IC50 recorded for NC[C@H]1CC[C@H](C(=O)O)CC1
Not Active
